Tested on: mouse Factor 11 mRNA
Assay: Cross-reactive antisense inhibition of murine Factor 11 in primary mouse hepatocytes, 100 nM (Example 9)
Type: cell-based
Conditions: ~24 hours
Strand notation (5' to 3'): a small letter for the sugar, then the base; units joined by * are phosphorothioate-linked, units joined directly phosphodiester-linked; [ ] holds rarer units or linkages, { } end groups; capitals alone tell only the bases. e = 2'-O-(2-methoxyethyl) (MOE); [5mC] = 5-methylcytosine; d = 2'-deoxy (DNA)
Hi there, I'd appreciate the recorded % Inhibition of mouse Factor 11 mRNA levels for every entry that follows.
Note: a bare number is incomplete; add the unit.

For 404050 (eT*eG*e[5mC]*eT*eT*dG*dA*dA*dG*dG*dA*dA*dT*dA*dT*e[5mC]*e[5mC]*eA*eG*eA; antisense) [compound 404050] the substance record lists % Inhibition of mouse Factor 11 mRNA levels as 82%

Sample 404090 (antisense eT*eG*eA*eT*e[5mC]*dA*dT*dG*dA*dA*dT*dT*dA*dT*d[5mC]*eA*eT*eT*eT*e[5mC]) [compound 404090] ; % Inhibition of mouse Factor 11 mRNA levels observed: 42%

Measured % Inhibition of mouse Factor 11 mRNA levels of 404067 (antisense eG*eG*eG*eA*eA*dA*dA*dT*dG*dT*d[5mC]*d[5mC]*d[5mC]*dT*dG*eA*eT*eA*e[5mC]*eA) [compound 404067] : 39%

Lab note: 404087 (antisense eT*eT*e[5mC]*eT*eT*dG*dA*dA*d[5mC]*d[5mC]*d[5mC]*dT*dG*dA*dA*eG*eA*eA*eA*eG) [compound 404087] gave % Inhibition of mouse Factor 11 mRNA levels of 29%

GET /value?item= 404055 (eT*eG*eT*eT*eA*dT*dA*dG*dT*dT*d[5mC]*dA*dT*dG*d[5mC]*e[5mC]*e[5mC]*eT*eT*e[5mC]; antisense) [compound 404055] &field=% Inhibition of mouse Factor 11 mRNA levels returns 27%

Short answer for 404066 (eA*eA*eT*eG*eT*d[5mC]*d[5mC]*d[5mC]*dT*dG*dA*dT*dA*d[5mC]*dA*eA*eG*e[5mC]*e[5mC]*eA; antisense) [compound 404066] : % Inhibition of mouse Factor 11 mRNA levels was 37%

----------
Assay: Liver function, ALT, AST, bilirubin in cynomolgus monkeys (Example 45)
Format: in vivo
Settings: plasma; day 43; escalating dose regimen
Assign Bilirubin to each entry below.
# include the unit after the value

Reported Bilirubin for ISIS 417002: MOE gapmer, nucleobases 1275 to 1318 of SEQ ID NO: 1 (Table 8) (antisense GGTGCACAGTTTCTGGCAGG; MOE gapmer, wing and gap sizes not given here) was 0.21 mg/dL

The recorded Bilirubin for entry ISIS 416864: MOE gapmer, nucleobases 1275 to 1318 of SEQ ID NO: 1 (Table 8) (antisense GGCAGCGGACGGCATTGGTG; MOE gapmer, wing and gap sizes not given here) equals 0.17 mg/dL

Bilirubin for ISIS 416838: MOE gapmer, nucleobases 1018 to 1042 of SEQ ID NO: 1 (Table 6) (antisense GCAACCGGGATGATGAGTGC; MOE gapmer, wing and gap sizes not given here) is 0.17 mg/dL

Recorded result, ISIS 416850: MOE gapmer, nucleobases 1275 to 1318 of SEQ ID NO: 1 (Table 8) (antisense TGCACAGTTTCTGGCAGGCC; MOE gapmer, wing and gap sizes not given here) , Bilirubin: 0.13 mg/dL

// Bilirubin lookup, substance = ISIS 416858: MOE gapmer, nucleobases 1275 to 1318 of SEQ ID NO: 1 (Table 8) (antisense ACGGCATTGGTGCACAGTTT; MOE gapmer, wing and gap sizes not given here) , result: 0.14 mg/dL
